Values compiled from ChEMBL document CHEMBL5614394.

# Test system: Staphylococcus aureus
# test_protocol: Antibacterial activity against Staphylococcus aureus ATCC 29213 assessed as inhibition of visible growth of bacteria incubated for 24 hrs by CLSI protocol based broth-dilution method
# Assay type: functional
observed_property: MIC (µg/mL)

Some compounds with known MIC results, for comparison:
C=C[C@]1(C)C[C@@H](OC(=O)CSc2cccc(NC(=O)c3cc(B(O)O)ccc3OC)c2)[C@]2(C)[C@H](C)CC[C@]3(CCC(=O)[C@H]32)[C@@H](C)[C@@H]1O | 0.031
C=C[C@]1(C)C[C@@H](OC(=O)CSc2cccc(NC(=O)c3cc(F)cc(B(O)O)c3)c2)[C@]2(C)[C@H](C)CC[C@]3(CCC(=O)[C@H]32)[C@@H](C)[C@@H]1O | 0.031

(A) C=C[C@]1(C)C[C@@H](OC(=O)CSc2cccc(NC(=O)c3ccc(OC)c(B(O)O)c3)c2)[C@]2(C)[C@H](C)CC[C@]3(CCC(=O)[C@H]32)[C@@H](C)[C@@H]1O
(B) C=C[C@]1(C)C[C@@H](OC(=O)CSc2ccc(NC(=O)c3ccc(B(O)O)cc3F)cc2)[C@]2(C)[C@H](C)CC[C@]3(CCC(=O)[C@H]32)[C@@H](C)[C@@H]1O
Problem: For the pair A and B , which member has the lower MIC number? // return label of chosen record
Solution: A
(A: 0.031 µg/mL, B: 0.063 µg/mL)

---

# Test system: Staphylococcus aureus
# test_protocol: Antibacterial activity against Staphylococcus aureus ATCC 29213 assessed as inhibition of visible growth of bacteria incubated for 24 hrs by CLSI protocol based broth-dilution method
# Format: functional
observed_property: MIC (µg/mL)

C=C[C@]1(C)C[C@@H](OC(=O)CS[C@@H]2CC[C@@H](N)C[C@H]2O)[C@]2(C)[C@H](C)CC[C@]3(CCC(=O)[C@H]32)[C@@H](C)[C@@H]1O [LEFAMULIN] | 0.25
C=C[C@]1(C)C[C@@H](OC(=O)CSc2cccc(NC(=O)c3cc(B(O)O)ccc3F)c2)[C@]2(C)[C@H](C)CC[C@]3(CCC(=O)[C@H]32)[C@@H](C)[C@@H]1O | 0.063
C=C[C@]1(C)C[C@@H](OC(=O)CSc2ccccc2NC(=O)c2ccc3c(c2)B(O)OC3)[C@]2(C)[C@H](C)CC[C@]3(CCC(=O)[C@H]32)[C@@H](C)[C@@H]1O | 0.063
C=C[C@]1(C)C[C@@H](OC(=O)CSc2ccc(NC(=O)c3cc(B(O)O)ccc3F)cc2)[C@]2(C)[C@H](C)CC[C@]3(CCC(=O)[C@H]32)[C@@H](C)[C@@H]1O | 0.063
C=C[C@]1(C)C[C@@H](OC(=O)CSc2cccc(NC(=O)c3ccc(B(O)O)cc3Cl)c2)[C@]2(C)[C@H](C)CC[C@]3(CCC(=O)[C@H]32)[C@@H](C)[C@@H]1O | 0.063
C=C[C@]1(C)C[C@@H](OC(=O)CSc2cccc(NC(=O)c3cc(OC)cc(B(O)O)c3)c2)[C@]2(C)[C@H](C)CC[C@]3(CCC(=O)[C@H]32)[C@@H](C)[C@@H]1O | 0.031
C=C[C@]1(C)C[C@@H](OC(=O)CSc2cccc(NC(=O)c3ccc(B(O)O)s3)c2)[C@]2(C)[C@H](C)CC[C@]3(CCC(=O)[C@H]32)[C@@H](C)[C@@H]1O | 0.063
C=C[C@]1(C)C[C@@H](OC(=O)CSc2cccc(NC(=O)c3ccc(B(O)O)c([N+](=O)[O-])c3)c2)[C@]2(C)[C@H](C)CC[C@]3(CCC(=O)[C@H]32)[C@@H](C)[C@@H]1O | 0.063

(a) C=C[C@]1(C)C[C@@H](OC(=O)CSc2cccc(NC(=O)c3ccc(B4OC(C)(C)C(C)(C)O4)cc3)c2)[C@]2(C)[C@H](C)CC[C@]3(CCC(=O)[C@H]32)[C@@H](C)[C@@H]1O
(b) C=C[C@]1(C)C[C@@H](OC(=O)CSc2cccc(NC(=O)c3cc(C)cc(B(O)O)c3)c2)[C@]2(C)[C@H](C)CC[C@]3(CCC(=O)[C@H]32)[C@@H](C)[C@@H]1O
Problem: Higher MIC: a or b ? Record your answer as the label of the chosen record.
Solution: a
(a: 0.063 µg/mL, b: 0.031 µg/mL)

(P) C=C[C@]1(C)C[C@@H](OC(=O)CSc2ccc(NC(=O)c3cccc(B(O)O)c3)cc2)[C@]2(C)[C@H](C)CC[C@]3(CCC(=O)[C@H]32)[C@@H](C)[C@@H]1O
(Q) C=C[C@]1(C)C[C@@H](OC(=O)CSc2cccc(NC(=O)c3ccc(B(O)O)c(Cl)c3)c2)[C@]2(C)[C@H](C)CC[C@]3(CCC(=O)[C@H]32)[C@@H](C)[C@@H]1O
Problem: Given the listed items, does P or Q have the lesser reported MIC? Use the label to indicate which entry you chose.
Solution: P
(P: 0.031 µg/mL, Q: 0.063 µg/mL)
